# target: Cyclin-dependent kinase 16 (Homo sapiens)
result_type: ΔTm (°C)
Value expressed in °C; do not type the unit.

Reported ΔTm, compound O=c1ccc2ccc(O)c(O)c2o1 [DAPHNETIN] : ____ -0.6

Could you do the same for C[C@@H]1C[C@H]2O[C@@H]2/C=C\C=C\C(=O)Cc2c(Cl)c(O)cc(O)c2C(=O)O1 [RADICICOL] , please? 0.2

Could you do the same for Cn1cnc2c(NCc3ccccc3)nc(NCCO)nc21 [OLOMOUCINE] , please? -0.6

Could you do the same for `COc1ccc(S(=O)(=O)N(CCO)c2ccccc2CN(C)C/C=C/c2ccc(Cl)cc2)cc1` , please? -0.6

* * *

# target: Serine/threonine-protein kinase pim-2 (Homo sapiens, UniProt Q9P1W9)
# Sequence (Q9P1W9 whole entry, looked up): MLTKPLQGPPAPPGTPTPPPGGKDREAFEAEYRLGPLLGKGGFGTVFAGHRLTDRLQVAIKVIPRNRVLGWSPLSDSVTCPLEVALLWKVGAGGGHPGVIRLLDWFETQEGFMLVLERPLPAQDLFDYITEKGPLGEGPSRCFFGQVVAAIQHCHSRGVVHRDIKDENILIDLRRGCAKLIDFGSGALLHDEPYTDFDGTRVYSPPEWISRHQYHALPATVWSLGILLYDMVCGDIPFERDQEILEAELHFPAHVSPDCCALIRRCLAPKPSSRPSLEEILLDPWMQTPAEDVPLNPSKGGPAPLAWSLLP
Short version: ΔTm at least 0.5 °C is True, less is False.

Confirm if ΔTm reported for the molecule CN(C)c1ccc(CC2C(=O)Nc3ccccc32)cc1 (stereo not given) is 0.5 °C or above. False

Could you do the same for `CC(C)(C)n1nc(-c2ccc(Cl)cc2)c2c(N)ncnc21` , please? False

Could you do the same for CC(=O)O/N=C1/C(=C2/C(=O)Nc3cc(Br)ccc32)Nc2ccccc21 [6-BROMOINDIRUBIN-3'-ACETOXIME] , please? False

Could you do the same for `Clc1ccc(Nc2nnc(Cc3ccncc3)c3ccccc23)cc1` , please? False

Could you do the same for `CC(C)n1cnc2c(NCc3ccccc3O)nc(NCCCO)nc21` , please? False

Could you do the same for `CC(C)(C)c1cc(C=C2C(=O)C=CC2=O)cc(C(C)(C)C)c1O` , please? False

Could you do the same for `Cn1cc(C2=C(c3cn(CCCN)c4ccccc34)C(=O)NC2=O)c2ccccc21` , please? True

Could you do the same for CC(C)[C@H](CO)Nc1nc(Nc2cc(N)cc(Cl)c2)c2ncn(C(C)C)c2n1 [AMINOPURVALANOL] , please? False

Could you do the same for `O=C1NC(=O)C(c2cn(CCCn3ccnc3)c3ccccc23)=C1Nc1ccccc1` , please? True

Could you do the same for `COc1ccc(CNc2nc(N(CCO)CCO)nc3c2ncn3C(C)C)cc1` , please? False

Could you do the same for C[S+]([O-])c1ccc(CSc2nc(-c3ccc(F)cc3)c(-c3ccncc3)[nH]2)cc1 (stereo not given) , please? False

Could you do the same for `CC(C)(C)n1nc(-c2cccc3ccccc23)c2c(N)ncnc21` , please? False

Could you do the same for `O=C(O)Cc1ccc(O)c([N+](=O)[O-])c1` , please? False

Could you do the same for CCCNC(=O)Nc1ccc(Oc2ncnc3cc(OC)c(OC)cc23)cc1Cl [KRN-633] , please? False

Could you do the same for `COc1cc2c(cc1OC)-c1n[nH]c(Nc3cccc(F)c3)c1C2` , please? False

Could you do the same for `O=C1C=C2C(=Nc3c2c2c(c4c3=NC3=C4CCC=C3)C=NC=2)CC1` , please? True

Could you do the same for CCN(CC)CCNC(=O)c1c(C)[nH]c(/C=C2\C(=O)Nc3ccc(Cl)cc32)c1C [SU-11652] , please? True

Could you do the same for `CCN(CC)CCNC(=O)c1c(C)[nH]c(/C=C2\C(=O)Nc3ccc(F)cc32)c1C` , please? False

Could you do the same for Cl.Cn1cc(C2=C(c3ccc4cc5n(c4c3)CCC(CN)C5)C(=O)NC2=O)c2ccccc21 (stereo not given) , please? True

Could you do the same for `Cc1ccc(NC(=O)c2cccc(N(C)C)c2)cc1NC(=O)c1ccc(O)cc1` , please? False

Could you do the same for `COc1cc2ncnc(Nc3ccc(F)c(Cl)c3)c2cc1OCCCN1CCOCC1` , please? True

Could you do the same for `NC(=O)c1ccc2[nH]c(-c3ccc(Oc4ccc(Cl)cc4)cc3)nc2c1` , please? True

Could you do the same for `CC(C)n1cnc2/c(=N/c3cccc(Cl)c3)nc(NCCO)[nH]c21` , please? True

Could you do the same for `C/C(O)=C(\C#N)C(=O)Nc1cc(Br)ccc1Br` , please? True

Could you do the same for `Nc1nc(Nc2ccc(S(N)(=O)=O)cc2)nn1C(=S)Nc1c(F)cccc1F` , please? True

Could you do the same for `N#C/C(=C(/N)Sc1ccc(N)cc1)c1ccccc1C(F)(F)F` , please? False

Could you do the same for `O=c1c(-c2ccc(O)cc2)coc2cc(O)cc(O)c12` , please? True

Could you do the same for `COc1cccc(-c2cc(=O)c3ccccc3o2)c1N` , please? False

* * *

ΔTm, Dual specificity protein kinase CLK2 (Homo sapiens) (UniProt P49760): measured values
Value expressed in °C; do not type the unit.

Reported ΔTm, compound `O=S(=O)(c1cccc2c(Cl)cccc12)N1CCCNCC1` : ____ 0.6

Could you do the same for `C=CNC#N` , please? 0.6

Could you do the same for `COc1cc2ncnc(Nc3ccc(F)c(Cl)c3)c2cc1OCCCN1CCOCC1` , please? 0

Could you do the same for `Cn1cc(C2=C(c3cn(CCCSC(=N)N)c4ccccc34)C(=O)NC2=O)c2ccccc21` , please? 5.1

Could you do the same for `O=C1Nc2ccccc2/C1=C/c1cnc[nH]1` , please? 2.5

* * *

# target: cAMP-dependent protein kinase catalytic subunit alpha (Homo sapiens) (UniProt P17612)
Short version: ΔTm at least 0.8 °C is true, less is false.

Confirm if ΔTm reported for the compound CN(C)c1ccc(CC2C(=O)Nc3ccccc32)cc1 (stereo unspecified) is 0.8 °C or above. false

Could you do the same for `COc1cccc(-c2cc(=O)c3ccccc3o2)c1N` , please? false

Could you do the same for CC(=O)O/N=C1/C(=C2/C(=O)Nc3cc(Br)ccc32)Nc2ccccc21 [6-BROMOINDIRUBIN-3'-ACETOXIME] , please? true

Could you do the same for `CCN(CC)CCNC(=O)c1c(C)[nH]c(/C=C2\C(=O)Nc3ccc(F)cc32)c1C` , please? true

Could you do the same for O=C(O)c1cc(N(Cc2ccccc2O)Cc2cc(O)ccc2O)ccc1O [LAVENDUSTIN A] , please? true

Could you do the same for `CN[C@@H]1CC2O[C@@](C)([C@@H]1OC)n1c3ccccc3c3c4c(c5c6ccccc6n2c5c31)C(=O)NC4` , please? true

Could you do the same for C[S+]([O-])c1ccc(CSc2nc(-c3ccc(F)cc3)c(-c3ccncc3)[nH]2)cc1 (stereo unspecified) , please? false

Could you do the same for `CC(C)n1cnc2c(NCc3ccccc3)nc(NCCCO)nc21` , please? false

Could you do the same for `O=c1c(-c2ccc(F)cc2)c(-c2ccncc2)[nH]n1-c1ccc(Cl)cc1` , please? true

Could you do the same for `c1ccc(-c2n[nH]c3c2oc2ccccc23)cc1` , please? true

Could you do the same for `CC(C)n1cnc2c(NCc3ccccc3O)nc(NCCCO)nc21` , please? false

Could you do the same for CN(C)CCCn1cc(C2=C(c3c[nH]c4ccccc34)C(=O)NC2=O)c2ccccc21 [GF-109203] , please? true

Could you do the same for C[C@@H]1C[C@H]2O[C@@H]2/C=C\C=C\C(=O)Cc2c(Cl)c(O)cc(O)c2C(=O)O1 [RADICICOL] , please? false

Could you do the same for `CC(C)(C)c1nc2c3ccc(F)cc3c3c(=O)[nH]ccc3c2[nH]1` , please? true

Could you do the same for `O=[N+]([O-])c1ccc(-c2nc(-c3ccc(F)cc3)c(-c3ccncc3)[nH]2)cc1` , please? true

Could you do the same for `O=c1cc(-c2ccc(O)cc2)oc2cc(O)cc(O)c12` , please? true

Could you do the same for `COc1ccc(S(=O)(=O)N(CCO)c2ccccc2CN(C)C/C=C/c2ccc(Cl)cc2)cc1` , please? false

Could you do the same for `Cc1[nH]c(/C=C2\C(=O)Nc3ccc(S(=O)(=O)N(C)c4cccc(Cl)c4)cc32)c(C)c1C(=O)N1CCN(C)CC1` , please? true

Could you do the same for `CCOC(=O)c1c(C)[nH]c(/C=C2\C(=O)Nc3ccccc32)c1C` , please? false

Could you do the same for COc1cc(O)c2c(c1)oc(=O)c1c3cc(O)c(O)cc3oc21 [WEDELOLACTONE] , please? true

Could you do the same for `C#Cc1cccc(Nc2ncnc3cc(OCCOC)c(OCCOC)cc23)c1` , please? false

Could you do the same for `Cc1nc(Nc2ncc(C(=O)Nc3c(C)cccc3Cl)s2)cc(N2CCN(CCO)CC2)n1` , please? false

Could you do the same for `CC(C)c1nn(-c2c(Cl)cccc2Cl)c2nc(Cc3ccc(OCCO)cc3)[nH]c(=O)c12` , please? false

Could you do the same for `Nc1ncnc2c1c(I)cn2[C@@H]1O[C@H](CO)[C@@H](O)[C@H]1O` , please? true
